# Read-out: Bcl-2 (BAX) gene, BAX (gene 581)
# assay_explanation: LTEA_HepaRG_BAX: Life Technologies and Expression Analysis (LTEA) Assay for Bcl-2 (BAX) gene using HepaRG (AID 2283470)
# test_parameters: mRNA level, 48 h; actives raise or lower the signal
The source made the active and inactive calls. Rule for the calls: active = hit-call score of the fitted dose curve at least 0.9, where 1 is the maximum; inactive = score below 0.9.
Possible outcomes: active, inactive

[[record]]
compound = "CC1(C)C(C(=O)OC(C#N)c2cccc(Oc3ccccc3)c2)C1(C)C (stereo not drawn)"
class_name = "inactive"

[[record]]
compound = "CCOc1nc(C(Cl)(Cl)Cl)ns1"
class_name = "active"

[[record]]
compound = "CC1(C)C(C=C(Cl)Cl)C1C(=O)OC(C#N)c1cccc(Oc2ccccc2)c1 (stereo not drawn)"
class_name = "inactive"

[[record]]
compound = "CCCCC(C#N)(Cn1cncn1)c1ccc(Cl)cc1 (stereo not drawn)"
class_name = "inactive"

[[record]]
compound = "O=P(O)(O)CCCl"
class_name = "inactive"

[[record]]
compound = "CC(C)NC(=O)N1CC(=O)N(c2cc(Cl)cc(Cl)c2)C1=O"
class_name = "inactive"

[[record]]
compound = "Nc1c(Cl)c(F)nc(OCC(=O)O)c1Cl"
class_name = "inactive"

[[record]]
compound = "CN=C=S"
class_name = "inactive"

[[record]]
compound = "CCN(CC)C(=O)C(C)Oc1cccc2ccccc12 (stereo not drawn)"
class_name = "inactive"

[[record]]
compound = "Cc1nc(N(C)C)nc(OC(=O)N(C)C)c1C"
class_name = "inactive"

[[record]]
compound = "CC(C)Oc1cccc(NC(=O)c2ccccc2C(F)(F)F)c1"
class_name = "inactive"

[[record]]
compound = "Cc1cnc(C2=NC(C)(C(C)C)C(=O)N2)c(C(=O)O)c1 (stereo not drawn)"
class_name = "inactive"

[[record]]
compound = "O=c1n(Cl)c(=O)n(Cl)c(=O)n1Cl"
class_name = "inactive"

[[record]]
compound = "CC1(C)CON(Cc2ccccc2Cl)C1=O"
class_name = "inactive"

[[record]]
compound = "CNC(=O)Oc1cccc2ccccc12"
class_name = "inactive"

[[record]]
compound = "COc1ccc(-c2ccccc2)cc1NNC(=O)OC(C)C"
class_name = "inactive"

[[record]]
compound = "COCC(C)N(C(=O)CCl)c1c(C)csc1C (stereo not drawn)"
class_name = "inactive"

[[record]]
compound = "CCC(C)n1c(=O)[nH]c(C)c(Br)c1=O (stereo not drawn)"
class_name = "inactive"

[[record]]
compound = "Clc1nc(Cl)nc(Nc2ccccc2Cl)n1"
class_name = "inactive"

[[record]]
compound = "CCNP(=S)(OC)O/C(C)=C/C(=O)OC(C)C (stereo not drawn)"
class_name = "inactive"

[[record]]
compound = "C=C(C)CN(CC)c1c([N+](=O)[O-])cc(C(F)(F)F)cc1[N+](=O)[O-]"
class_name = "inactive"

[[record]]
compound = "CCOC(=O)C(C)OC(=O)c1cc(Oc2ccc(C(F)(F)F)cc2Cl)ccc1[N+](=O)[O-] (stereo not drawn)"
class_name = "inactive"

[[record]]
compound = "CCCN(CC)CC1COC2(CCC(C(C)(C)C)CC2)O1 (stereo not drawn)"
class_name = "inactive"


* * *

# Read-out: Cyclin D1 (CCND1), CCND1 (gene 595)
# assay_explanation: LTEA_HepaRG_CCND1: Life Technologies and Expression Analysis (LTEA) Assay for Cyclin D1 (CCND1) using HepaRG (AID 2283451);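 for AC50: differentiated human HepaRG liver cells in serum-free induction medium; TaqMan qRT-PCR transcript level normalised to ACTB GAPDH and POLR2A housekeeping genes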
# test_parameters: mRNA level, 48 h; actives raise or lower the signal
Active and inactive are the calls of the source. The calls were made as follows: active = hit-call score of the fitted dose curve at least 0.9, where 1 is the maximum; inactive = score below 0.9.
outcome_measure: AC50

[[record]]
molecule = "Nc1cnn(-c2ccccc2)c(=O)c1Cl"
outcome_measure = "AC50"
data_value = "inactive"

[[record]]
molecule = "CC(C)Oc1cccc(NC(=O)c2ccccc2C(F)(F)F)c1"
outcome_measure = "AC50"
data_value = "inactive"

[[record]]
molecule = "CSC(=O)c1c(C(F)F)nc(C(F)(F)F)c(C(=O)SC)c1CC(C)C"
outcome_measure = "AC50"
data_value = "inactive"

[[record]]
molecule = "CC1(C)CCC(=Cc2ccc(Cl)cc2)C1(O)Cn1cncn1 (configuration not stated)"
outcome_measure = "AC50"
data_value = "inactive"

[[record]]
molecule = "COc1cc(Cl)c(OC)cc1Cl"
outcome_measure = "AC50"
data_value = "inactive"

[[record]]
molecule = "CC(C)C1(C)N=C(c2ncccc2C(=O)O)NC1=O (configuration not stated)"
outcome_measure = "AC50"
data_value = "inactive"

[[record]]
molecule = "CC(C)NC(=O)N1CC(=O)N(c2cc(Cl)cc(Cl)c2)C1=O"
outcome_measure = "AC50"
data_value = "23.8 µM (active)"

[[record]]
molecule = "COC(=O)NC(=S)Nc1ccccc1NC(=S)NC(=O)OC"
outcome_measure = "AC50"
data_value = "inactive"

[[record]]
molecule = "CC(C)(C)C(=O)C(Oc1ccc(Cl)cc1)n1cncn1 (configuration not stated)"
outcome_measure = "AC50"
data_value = "inactive"

[[record]]
molecule = "CCOP(=O)(OCC)Oc1nc(Cl)c(Cl)cc1Cl"
outcome_measure = "AC50"
data_value = "80.7 µM (active)"

[[record]]
molecule = "CN/C(=N\\[N+](=O)[O-])NCc1cnc(Cl)s1"
outcome_measure = "AC50"
data_value = "inactive"

[[record]]
molecule = "CC(C)=CC1C(C(=O)OCc2coc(Cc3ccccc3)c2)C1(C)C (configuration not stated)"
outcome_measure = "AC50"
data_value = "inactive"


* * *

# subject_of_test: Cellular tumor antigen p53 (Homo sapiens)
# assay_explanation: TOX21_p53_BLA_p4_ratio: Tox21 HCT-116 p53 Agonism Beta-lactamase Assay, Ratio, Phase 4 (AID 2283601)
# Experimental: TOX21_p53_BLA_p4 is a cell-based, single-readout assay that uses HCT116, a human intestinal cell line, […] in a 1536-well plate.TOX21_p53_BLA_p4_ratio is an assay readout measuring reporter gene via receptor activity and designed using inducible reporter (beta lactamase induction) detected with GAL4 b-lactamase reporter gene. […] This assay endpoint, TOX21_p53_BLA_p4_ratio, was analyzed in the positive analysis fitting direction relative to DMSO as the negative control and baseline of activity. […]
Results filed as inconclusive are left out. Active and inactive are the calls of the source. The calls were made as follows: active = hit-call score of the fitted dose curve at least 0.9, where 1 is the maximum; inconclusive = response in the unintended direction; inactive = score below 0.9.
Possible outcomes: TRUE for active, FALSE for inactive

[[record]]
compound = "Nc1cnn(-c2ccccc2)c(=O)c1Cl"
class_name = "FALSE"

[[record]]
compound = "CC(C)N1C(=O)N(c2ccccc2)CSC1=NC(C)(C)C"
class_name = "TRUE"

[[record]]
compound = "CCOc1nc(F)cc2nc(S(=O)(=O)Nc3c(Cl)cccc3Cl)nn12"
class_name = "FALSE"

[[record]]
compound = "CCCCC(C#N)(Cn1cncn1)c1ccc(Cl)cc1 (configuration not stated)"
class_name = "FALSE"

[[record]]
compound = "COC(=O)NS(=O)(=O)c1ccc(N)cc1"
class_name = "FALSE"

[[record]]
compound = "CO/N=C(/C1=NOCCO1)c1ccccc1Oc1ncnc(Oc2ccccc2Cl)c1F"
class_name = "FALSE"

[[record]]
compound = "CN=C=S"
class_name = "FALSE"


* * *

# subject_of_test: zebrafish Thyroid Hormone Receptor alpha (TRa), thraa (gene 30670) (UniProt Q98867)
# Sequence (Q98867 whole entry, looked up, the tested form may be a part): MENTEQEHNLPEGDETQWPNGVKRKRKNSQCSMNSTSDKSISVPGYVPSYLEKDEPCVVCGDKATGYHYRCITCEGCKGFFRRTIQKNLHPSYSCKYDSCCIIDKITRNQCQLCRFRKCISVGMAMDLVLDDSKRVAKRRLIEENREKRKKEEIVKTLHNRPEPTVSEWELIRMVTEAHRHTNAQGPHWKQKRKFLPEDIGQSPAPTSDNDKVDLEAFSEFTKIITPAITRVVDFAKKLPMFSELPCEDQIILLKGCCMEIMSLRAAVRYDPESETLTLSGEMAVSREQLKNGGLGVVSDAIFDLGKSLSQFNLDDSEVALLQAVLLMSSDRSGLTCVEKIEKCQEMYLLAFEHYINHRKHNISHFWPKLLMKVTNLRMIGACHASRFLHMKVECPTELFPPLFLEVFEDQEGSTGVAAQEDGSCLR
# assay_explanation: ATG_zfTRa_XSP2: Attagene TRANS-FACTORIAL Multi-Species (XSP1) HepG2 Assay for zebrafish Thyroid Hormone Receptor alpha (TRa) (AID 2283832);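 note: actives raise zebrafish TRa-Gal4 reporter transcript above DMSO baseline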
Results filed as inconclusive are left out. Active and inactive are the calls of the source. Rule for the calls: active = hit-call score of the fitted dose curve at least 0.9, where 1 is the maximum; inconclusive = response in the unintended direction; inactive = score below 0.9.
outcome_measure: outcome

[[record]]
compound = "CC1(C)CCC(=Cc2ccc(Cl)cc2)C1(O)Cn1cncn1 (centres undefined)"
outcome_measure = "outcome"
data_value = "inactive"

[[record]]
compound = "CCN(CC)C(=O)C(C)Oc1cccc2ccccc12 (centres undefined)"
outcome_measure = "outcome"
data_value = "inactive"

[[record]]
compound = "CC(C)NC(=O)N1CC(=O)N(c2cc(Cl)cc(Cl)c2)C1=O"
outcome_measure = "outcome"
data_value = "inactive"

[[record]]
compound = "CC1(C)C(C=C(Cl)Cl)C1C(=O)OC(C#N)c1cccc(Oc2ccccc2)c1 (centres undefined)"
outcome_measure = "outcome"
data_value = "inactive"


* * *

# Read-out: Cellular tumor antigen p53 (Homo sapiens) (UniProt P04637)
# Sequence (P04637 whole entry, looked up): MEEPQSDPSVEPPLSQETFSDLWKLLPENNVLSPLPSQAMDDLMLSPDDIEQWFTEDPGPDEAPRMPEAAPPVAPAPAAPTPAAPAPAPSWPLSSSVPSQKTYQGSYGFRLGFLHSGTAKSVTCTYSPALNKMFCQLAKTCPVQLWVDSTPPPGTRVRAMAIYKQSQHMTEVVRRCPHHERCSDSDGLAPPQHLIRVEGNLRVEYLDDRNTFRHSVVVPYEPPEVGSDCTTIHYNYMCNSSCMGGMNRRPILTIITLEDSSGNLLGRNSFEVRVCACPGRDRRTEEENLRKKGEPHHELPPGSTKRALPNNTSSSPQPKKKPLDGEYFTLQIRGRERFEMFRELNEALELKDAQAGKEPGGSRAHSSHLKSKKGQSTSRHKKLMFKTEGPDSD
# assay_explanation: LTEA_HepaRG_TP53: Life Technologies and Expression Analysis (LTEA) Assay for Tumor Protein P53 (TP53) using HepaRG (AID 2283537)
# test_parameters: mRNA level, 48 h; actives raise or lower the signal
Calls of active or inactive are those of the source. How the source made its calls: active means hit-call score of the fitted dose curve at least 0.9, where 1 is the maximum; inactive means score below 0.9.
Possible outcomes: True for active, False for inactive

[[record]]
compound = "CS(=O)(=O)c1ccc(C(=O)C2C(=O)CCCC2=O)c([N+](=O)[O-])c1"
class_name = "False"

[[record]]
compound = "CC1(C)C(C=C(Cl)Cl)C1C(=O)OC(C#N)c1cccc(Oc2ccccc2)c1 (centres undefined)"
class_name = "False"

[[record]]
compound = "CCOc1nc(C(Cl)(Cl)Cl)ns1"
class_name = "True"

[[record]]
compound = "CC1(C)C(C(=O)OC(C#N)c2cccc(Oc3ccccc3)c2)C1(C)C (centres undefined)"
class_name = "False"

[[record]]
compound = "Cc1cc(C)nc(Nc2ccccc2)n1"
class_name = "False"

[[record]]
compound = "Nc1cnn(-c2ccccc2)c(=O)c1Cl"
class_name = "False"

[[record]]
compound = "CS(=O)(=O)c1cc(C(F)(F)F)ccc1C(=O)c1cnoc1C1CC1"
class_name = "False"

[[record]]
compound = "CCCC(=NOCC)C1=C(O)CC(CC(C)SCC)CC1=O (centres undefined)"
class_name = "False"

[[record]]
compound = "CC(C)Nc1nc(Cl)nc(NC(C)C)n1"
class_name = "False"

[[record]]
compound = "OC(c1ccc(Cl)cc1)(c1ccc(Cl)cc1)C(Cl)(Cl)Cl"
class_name = "True"

[[record]]
compound = "COC(=O)NC(=S)Nc1ccccc1NC(=S)NC(=O)OC"
class_name = "False"

[[record]]
compound = "COc1cc(OC)nc(NC(=O)NS(=O)(=O)c2ncccc2OCC(F)(F)F)n1"
class_name = "False"

[[record]]
compound = "CSC(=O)c1c(C(F)F)nc(C(F)(F)F)c(C(=O)SC)c1CC(C)C"
class_name = "False"

[[record]]
compound = "COCC(=O)N(c1c(C)cccc1C)C(C)C(=O)OC (centres undefined)"
class_name = "False"

[[record]]
compound = "N#Cc1c(Cl)cccc1Cl"
class_name = "False"

[[record]]
compound = "Nc1c(Cl)c(Cl)nc(C(=O)O)c1Cl"
class_name = "False"

[[record]]
compound = "CC1(C)CCC(=Cc2ccc(Cl)cc2)C1(O)Cn1cncn1 (centres undefined)"
class_name = "False"

[[record]]
compound = "Cc1cnc(C2=NC(C)(C(C)C)C(=O)N2)c(C(=O)O)c1 (centres undefined)"
class_name = "False"

[[record]]
compound = "O=C(Nc1ccccc1-c1ccc(Cl)cc1)c1cccnc1Cl"
class_name = "False"

